These data points were gathered from patent US20200079855A1.

- measurement-target: recombinant human αvβ8 integrin (human) (UniProt P06756)
- Sequence (P06756 31-992 limits assumed, form in doubt, chain 1 of 2): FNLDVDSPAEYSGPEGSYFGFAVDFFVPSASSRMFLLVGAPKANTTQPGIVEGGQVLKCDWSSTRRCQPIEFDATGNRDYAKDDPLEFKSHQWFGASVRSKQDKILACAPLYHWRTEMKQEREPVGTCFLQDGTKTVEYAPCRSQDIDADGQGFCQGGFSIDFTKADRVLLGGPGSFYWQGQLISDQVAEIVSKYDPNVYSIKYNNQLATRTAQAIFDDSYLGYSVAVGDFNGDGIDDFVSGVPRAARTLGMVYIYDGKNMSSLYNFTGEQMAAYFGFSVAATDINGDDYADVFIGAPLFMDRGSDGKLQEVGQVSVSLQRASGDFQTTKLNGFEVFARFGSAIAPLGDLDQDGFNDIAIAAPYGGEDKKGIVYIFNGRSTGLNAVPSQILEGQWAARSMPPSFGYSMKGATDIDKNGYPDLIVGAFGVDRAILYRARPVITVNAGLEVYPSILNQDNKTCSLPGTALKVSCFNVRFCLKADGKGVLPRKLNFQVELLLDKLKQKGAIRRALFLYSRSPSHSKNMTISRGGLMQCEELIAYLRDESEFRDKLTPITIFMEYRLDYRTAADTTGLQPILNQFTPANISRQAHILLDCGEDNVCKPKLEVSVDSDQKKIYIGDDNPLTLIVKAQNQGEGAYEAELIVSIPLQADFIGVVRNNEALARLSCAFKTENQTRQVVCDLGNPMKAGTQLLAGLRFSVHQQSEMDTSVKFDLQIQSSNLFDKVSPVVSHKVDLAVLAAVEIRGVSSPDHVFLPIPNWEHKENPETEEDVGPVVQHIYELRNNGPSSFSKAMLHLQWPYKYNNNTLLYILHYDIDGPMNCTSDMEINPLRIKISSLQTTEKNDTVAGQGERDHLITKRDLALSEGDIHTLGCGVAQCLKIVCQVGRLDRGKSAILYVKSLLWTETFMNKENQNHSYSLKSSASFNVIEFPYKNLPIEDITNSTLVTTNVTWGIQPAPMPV
- Sequence (chain, as listed by the source limits assumed, form in doubt, chain 2 of 2): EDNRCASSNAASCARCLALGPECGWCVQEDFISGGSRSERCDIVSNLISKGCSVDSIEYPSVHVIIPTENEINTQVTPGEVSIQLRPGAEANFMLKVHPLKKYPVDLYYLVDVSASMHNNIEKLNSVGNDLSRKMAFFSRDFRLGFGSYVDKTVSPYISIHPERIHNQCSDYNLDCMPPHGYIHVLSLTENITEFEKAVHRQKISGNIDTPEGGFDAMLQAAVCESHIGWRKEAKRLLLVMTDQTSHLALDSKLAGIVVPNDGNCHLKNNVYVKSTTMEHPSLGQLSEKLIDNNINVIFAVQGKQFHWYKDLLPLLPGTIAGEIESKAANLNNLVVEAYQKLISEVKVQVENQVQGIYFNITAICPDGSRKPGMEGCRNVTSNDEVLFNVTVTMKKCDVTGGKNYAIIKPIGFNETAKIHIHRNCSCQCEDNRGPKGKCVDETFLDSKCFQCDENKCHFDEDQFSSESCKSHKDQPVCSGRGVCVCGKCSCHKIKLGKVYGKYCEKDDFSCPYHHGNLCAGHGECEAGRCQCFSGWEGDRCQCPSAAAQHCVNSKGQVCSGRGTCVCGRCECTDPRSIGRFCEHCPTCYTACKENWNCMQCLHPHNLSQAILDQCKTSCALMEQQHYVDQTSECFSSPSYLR
- assay-remarks: ELISA (DELFIA counts) on human αvβ8, Fab titration
Recorded measurements of EC50 (read off the curve), one per entry
recorded-metric: EC50 (read off the curve) (nM)

binder: ADWA11 VH05/VK01 Fab (Fab, V domains shown, Fab; also called VH05-2_VK01 parental) VH: EVQLVESGGGLVQPGGSLRLSCAASGFNIKDYYMNWVRQAPGKGLEWVGWIDPDNGNTIYDPKFQGRFTISADTSKNSAYLQMNSLRAEDTAVYYCARRLLMDYWGQGTLVTVSS VL: DIQMTQSPSSLSASVGDRVTITCRSTKSLLHFNGNTYLFWYQQKPGKAPKRLIYYMSNLASGVPSRFSGSGSGTDFTLTISSLQPEDFATYYCMQSLEYPFTFGQGTKVEIK
measured-number: 1
--
binder: ADWA11 VH05/VK01 Fab with P62A in VH (Fab, V domains shown) VH: EVQLVESGGGLVQPGGSLRLSCAASGFNIKDYYMNWVRQAPGKGLEWVGWIDPDNGNTIYDAKFQGRFTISADTSKNSAYLQMNSLRAEDTAVYYCARRLLMDYWGQGTLVTVSS VL: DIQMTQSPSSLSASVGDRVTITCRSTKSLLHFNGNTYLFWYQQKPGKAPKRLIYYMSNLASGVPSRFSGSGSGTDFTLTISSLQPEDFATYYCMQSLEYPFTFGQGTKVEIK
measured-number: 1
--
binder: ADWA11 VH05/VK01 Fab with K30A in VH (Fab, V domains shown) VH: EVQLVESGGGLVQPGGSLRLSCAASGFNIADYYMNWVRQAPGKGLEWVGWIDPDNGNTIYDPKFQGRFTISADTSKNSAYLQMNSLRAEDTAVYYCARRLLMDYWGQGTLVTVSS VL: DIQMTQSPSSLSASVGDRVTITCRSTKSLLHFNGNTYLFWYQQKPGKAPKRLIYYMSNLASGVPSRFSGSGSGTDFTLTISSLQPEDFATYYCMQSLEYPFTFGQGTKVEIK
measured-number: 1
